All figures here come from PubChem BioAssay (NCI).

Entries and their measured log10 TGI follow.
Test system: MDA-MB-231 breast
test_protocol: NCI tumour cell line growth inhibition, 48 h
For clarity, the numbers are log10 values of TGI expressed in µM.

Answered cases to consult:
N=c1c2c(=S)n(-c3ccccc3)c(=S)n(-c3ccccc3)c2nc(SCCN2CCCC2)n1-c1ccccc1 = 0.55
CC1=C2[C@@H](CC1)[C@]1(C)O[C@@](C(C)C)(C[C@H]1OC(=O)CO)[C@H]2OC(=O)C1CC1c1ccccc1 (some centres not stated) = 1.53
CC1C(C)N(C(=O)CCl)c2ccccc2N1C(=O)CCl (configuration not stated) = 0.56

Shift focus to the following entry.
Would you kindly share the measured log10 TGI for OC(COC(c1ccccc1)(c1ccccc1)c1ccccc1)C(O)CC1SCCS1 (configuration not stated) ?
1.55

---

Test system: OVCAR-8 ovarian
test_protocol: NCI tumour cell line growth inhibition, 48 h
value_kind: GI50

CC(N)(Cc1c[nH]c2cccc(F)c12)C(=O)O (stereo not given) = > 1000 µM

Would you kindly share the measured GI50 for CCOCCCn1c2c(c3c(O)cccc31)C(=O)c1ccccc1-2 ?
31.1 µM

Would you kindly share the measured GI50 for CC1=C2[C@@H](CC1)[C@]1(C)O[C@@](C(C)C)(C[C@H]1OC(=O)CO)[C@H]2OC(=O)C1CC1c1ccccc1 (stereo not given in full) ?
12.9 µM

Would you kindly share the measured GI50 for Cc1cc2c(cc1Cl)S/C(=C/C(=O)O)C(Nc1ccc3ncsc3c1)=NS2(=O)=O ?
32.7 µM

Would you kindly share the measured GI50 for CC(C)(C)c1ccc(Oc2ccc(N)cn2)cc1 ?
75.6 µM

---

Tested on: OVCAR-4 ovarian
test_protocol: NCI tumour cell line growth inhibition, 48 h
value_kind: TGI

CCC(C)Nc1ccc(N)cc1 (centres undefined) = 38.6 µM
CC1C(C)N(C(=O)CCl)c2ccccc2N1C(=O)CCl (centres undefined) = 1.73 µM
CCCCCCCCCCCCCCC(O)C[N+](C)(CCO)CCO (centres undefined) = 17 µM
COc1c2c(c3ccccc3c1O)C1C=CC2C1 (centres undefined) = 28.7 µM
Nc1ccc(C(=O)N/C(=C\c2cccc([N+](=O)[O-])c2)c2nc3[nH]c(=S)[nH]c(=O)c3[nH]2)cc1 = > 100 µM

Would you kindly share the measured TGI for CCOC(=O)/C(=C/c1ccc(C(=O)OC)cc1)N(CC)CC ?
> 100 µM

Would you kindly share the measured TGI for C=C/C=C/[C@@H](O)CC(=C)C[C@H]1OC2[C@H](C)[C@@H](OC(=O)C[C@H]3C[C@H](OC(C)=O)C[C@@]4(C[C@@](C)(O)C[C@H](CC(=C)[C@@H](C)[C@H](OC(C)=O)[C@H](C)C(=O)C[C@@H]5C[C@H](OC)CC6(C[C@@H](O)C[C@H](/C=C\CCC[C@H]7O[C@](O)(C=C[C@H]7C)[C@H]2O)O6)O5)O4)O3)[C@@H]1O ?
> 25 µM

Would you kindly share the measured TGI for CC(C)(C)c1cc(OCc2nn3c(Cc4ccccc4)nnc3s2)c(Cl)cc1OCc1nn2c(Cc3ccccc3)nnc2s1 ?
> 100 µM

Would you kindly share the measured TGI for O=C(c1ccccc1)C1S(=O)(=O)OCCOS1(=O)=O ?
> 100 µM

Would you kindly share the measured TGI for CC(C)(C)c1ccc(Oc2ccc(N)cn2)cc1 ?
> 100 µM

Would you kindly share the measured TGI for CCOP(=O)(OCC)C1CCCOC1=O (centres undefined) ?
> 100 µM

Would you kindly share the measured TGI for COC(=O)c1ccc(CN2C(=O)C(Cl)=C(Nc3cccc(Cl)c3C)C2=O)cc1 ?
> 100 µM

Would you kindly share the measured TGI for CCOC(=O)C(Cc1ccc(OC(=O)OC(C)(C)C)cc1)NC(=O)OC(C)(C)C (centres undefined) ?
> 100 µM

Would you kindly share the measured TGI for C[C@]12CC[C@H]3[C@@H](CC=C4C[C@@H](N5CCCC5)CC[C@@]43C)[C@@H]1C/C(=C\c1cccc(OCCN3CCOCC3)c1)[C@@H]2O ?
55.2 µM

Would you kindly share the measured TGI for C=CCN(CCNS(=O)(=O)c1ccc(C)cc1)S(=O)(=O)c1ccc(C)cc1 ?
> 100 µM

Would you kindly share the measured TGI for CCc1cccc(C)c1NC(=O)C(=O)CC(=O)c1ccc(Cl)s1 ?
> 100 µM

Would you kindly share the measured TGI for O=C(c1ccc(Cl)cc1)N(C(=S)N1CCN(c2ccccn2)CC1)C1CCCCC1 ?
> 100 µM

Would you kindly share the measured TGI for c1ccc(C2OC3(CCC[C@H]4C[C@H]43)O[C@H]2c2ccccc2)cc1 (some centres undefined) ?
> 100 µM

Would you kindly share the measured TGI for CC(=O)Oc1c(-c2ccccc2)sc2ccccc12 ?
73.4 µM

---

Tested on: OVCAR-4 ovarian
test_protocol: NCI tumour cell line growth inhibition, 48 h
value_kind: TGI

CN(C)c1ccc2oc(=O)c3ccccc3c2c1 = > 100 µM

Would you kindly share the measured TGI for C=C(NC(=O)C(=C)NC(=O)c1csc(C2=NC3c4csc(n4)C4NC(=O)c5csc(n5)C(C(C)(O)C(C)O)NC(=O)C5CSC(=N5)/C(=C/C)NC(=O)C(C(C)O)NC(=O)c5csc(n5)C3(CC2)NC(=O)C(C)NC(=O)C(=C)NC(=O)C(C)NC(=O)C(C(C)CC)NC2C=Cc3c(C(C)O)cc(nc3C2O)C(=O)OC4C)n1)C(N)=O (centres undefined) ?
> 100 µM

Would you kindly share the measured TGI for Cc1ccc(-c2nc(N/N=C/c3ccc(O)cc3)c3ccccc3n2)cc1 ?
16.2 µM

Would you kindly share the measured TGI for Nc1[nH]nc2nc3ccccc3nc12 ?
> 100 µM

---

Test system: U251 CNS
test_protocol: NCI tumour cell line growth inhibition, 48 h
value_kind: TGI

CSc1ccn(C2CC(F)C(CO)O2)c(=O)n1 (stereo not given) = > 100 µM

Would you kindly share the measured TGI for Nc1ccc(C(=O)N/C(=C\c2cccc([N+](=O)[O-])c2)c2nc3[nH]c(=S)[nH]c(=O)c3[nH]2)cc1 ?
> 85.6 µM

Would you kindly share the measured TGI for CC(C)(C)c1ccc(Oc2ccc(N)cn2)cc1 ?
> 100 µM

Would you kindly share the measured TGI for O=C1/C=C(/c2ccc(O)cc2)[C@@H](O)Cc2ccc(O)cc2O1 ?
> 100 µM

Would you kindly share the measured TGI for O=C(N/N=C\c1ccc(N(CCCl)CCCl)cc1[N+](=O)[O-])c1cccnc1 ?
> 100 µM

---

Test system: HCT-15 colon
test_protocol: NCI tumour cell line growth inhibition, 48 h
value_kind: TGI (µM)
Give the value, in units of µM, as a plain number.

Answered cases to consult:
Cc1ccc(S(=O)(=O)SC(C)(C)C)cc1 = 53
O=C(CCC=C(S(=O)(=O)c1ccccc1)S(=O)(=O)c1ccccc1)c1ccccc1 = 20.8

Shift focus to the following entry.
Would you kindly share the measured TGI for C=C1C(=O)O[C@@H]2[C@H](O)[C@@H](C)[C@@H]3C=CC(=O)[C@@]3(C)[C@@H](OC(=O)/C(C)=C/C)[C@H]12 ?
1.06

---

Test system: SNB-19 CNS
test_protocol: NCI tumour cell line growth inhibition, 48 h
value_kind: TGI

Would you kindly share the measured TGI for CC1(C)CNc2cc(NC(=O)c3cccnc3NCc3ccncc3)ccc21 ?
> 100 µM

---

System: OVCAR-3 ovarian
test_protocol: NCI tumour cell line growth inhibition, 48 h
Entries and their measured TGI follow.
Give the value, in units of µM, as a plain number.

Answered cases to consult:
CCCCCCCCCCCCCC[N+](C)(C)CCCCCCCCCCCCCC = 20.5
CCCCCCCCCCCCCCCCCCn1cc[n+](C)c1 = 1.27

Would you kindly share the measured TGI for Cc1ccc(S(=O)(=O)SC(C)(C)C)cc1 ?
39.3

Would you kindly share the measured TGI for O=C(CCCN1CCC(O)(c2ccc(Cl)cc2)CC1)c1ccc(F)cc1 ?
45.2

Would you kindly share the measured TGI for Cc1c(N=Nc2ccccc2)c(C)n(C2OC(CO)C(O)C(O)C2O)c(=S)c1C#N (stereo unspecified) ?
62.9

Would you kindly share the measured TGI for CCOC(=O)C(Cc1c[nH]c2cc([N+](=O)[O-])ccc12)NS(=O)(=O)c1ccc2ccccc2c1 (stereo unspecified) ?
31.5

Would you kindly share the measured TGI for Cc1cc2c(cc1Cl)S/C(=C/C(=O)O)C(Nc1ccc3ncsc3c1)=NS2(=O)=O ?
41.2

Would you kindly share the measured TGI for CNC(=O)c1c(NC(=O)c2ccc(C(C)(C)C)cc2)sc2c1CCC(=O)C2 ?
1.6

Would you kindly share the measured TGI for O=C1C(Cl)=C(N(C(=O)c2ccccc2)C(=O)c2ccccc2)C(=O)c2ccccc21 ?
22.9

Would you kindly share the measured TGI for CC(=O)Oc1c(N2CCCCC2)c(C(=O)c2ccccc2)c(O)c2ccn(N(C)C)c12 ?
74.7

Would you kindly share the measured TGI for COc1ccc2c3c([nH]c2c1)CCN(CCCC(=O)c1ccc(F)cc1)C3 ?
32.9

Would you kindly share the measured TGI for COc1ccc(C/C(=C(\C)c2ccc(OCCN3CCCC3)cc2)c2ccc(OCCN3CCCC3)cc2)cc1 ?
3.87

Would you kindly share the measured TGI for CCOC(=O)/C(=C/c1ccc(C(=O)OC)cc1)N(CC)CC ?
60
